These data points were gathered from patent US20020028248A1.

- Test Description: Solubility of Ecadotril in water
- Assay type: physicochemical
- Run Parameters: 37 °C, read-out: solubility in water
Readout Label: solubility

IN: Quick check: solubility of `CC(=O)SC[C@@H](Cc1ccccc1)C(=O)NCC(=O)OCc1ccccc1` ?
OUT: ~33 µg/mL
